These measurements were taken from paper PMC4933879.

Target: tubulin covalently linked to a biotinylated stathmin-like peptide
Assay: ELISA (off-rate estimation)
Details: chain shown with the change; incubation with 100 nM soluble tubulin to prevent rebinding; 10 nM biotinylated peptide-coupled tubulin for coating; parent: est. 0.11; read off a plot
value type: response (AU)
Numeric only. Scale: AU

Example entries and their recorded answers appear below.
DARPin D1 N74S (protein) MRGSHHHHHHGSDLGKKLLEAARAGQDDEVRILMANGADVNATDASGLTPLHLAATYGHLEIVEVLLKHGADVSAIDIMGSTPLHLAALIGHLEIVEVLLKHGADVNAVDTWGDTPLHLAAIMGHLEIVEVLLKHGADVNAQDKFGKTAFDISIDNGNEDLAEILQKLN : 0.18
DARPin D1 I122V (protein) MRGSHHHHHHGSDLGKKLLEAARAGQDDEVRILMANGADVNATDASGLTPLHLAATYGHLEIVEVLLKHGADVNAIDIMGSTPLHLAALIGHLEIVEVLLKHGADVNAVDTWGDTPLHLAAVMGHLEIVEVLLKHGADVNAQDKFGKTAFDISIDNGNEDLAEILQKLN : 0.12

Which response is listed for DARPin D1 V131A (protein) MRGSHHHHHHGSDLGKKLLEAARAGQDDEVRILMANGADVNATDASGLTPLHLAATYGHLEIVEVLLKHGADVNAIDIMGSTPLHLAALIGHLEIVEVLLKHGADVNAVDTWGDTPLHLAAIMGHLEIVEALLKHGADVNAQDKFGKTAFDISIDNGNEDLAEILQKLN ?
0.1
